- system: SaCas9 (Staphylococcus aureus)
- assay text: Strand displacement assay, SaCas9 primary screen
- Type: biochemical
- experimental context: SaCas9 primary screen, weaker potential hits, replicate 2

[
  {
    "compound": "Cc1cc(-c2nn3c(C(C)C)nnc3s2)no1",
    "Normalized Zscore Rep 2": 0.1972
  },
  {
    "compound": "O=c1ccc2ccc(OCc3nnn[nH]3)cc2o1",
    "Normalized Zscore Rep 2": 0.4628
  },
  {
    "compound": "Cc1noc2c1C(c1ccc(O)c(O)c1)C1=C(CC(c3ccc(O)cc3)CC1=O)N2 (stereo not drawn)",
    "Normalized Zscore Rep 2": 0.2195
  },
  {
    "compound": "Cc1ccccc1OCc1nn2c(C(C)C)nnc2s1",
    "Normalized Zscore Rep 2": 0.2065
  },
  {
    "compound": "CN(C)c1ncc(NS(=O)(=O)c2cc(F)ccc2F)cc1C(=O)O",
    "Normalized Zscore Rep 2": 0.2376
  },
  {
    "compound": "Cc1ccc(CSc2nc3c(c(=O)[nH]2)C(c2ccc(O)c(O)c2)CC(=O)N3)cc1 (stereo not drawn)",
    "Normalized Zscore Rep 2": 0.181
  },
  {
    "compound": "CCCN1CCN(c2ccc(C(=O)O)cc2NC(=O)c2ccccc2Cl)CC1",
    "Normalized Zscore Rep 2": 0.2108
  },
  {
    "compound": "COc1cccc(CNCc2cccn2-c2sc(C)c(C)c2C(=O)O)c1",
    "Normalized Zscore Rep 2": 0.3285
  },
  {
    "compound": "O=C1c2cccc3cccc(c23)N1S(=O)(=O)c1cccs1",
    "Normalized Zscore Rep 2": 0.123
  },
  {
    "compound": "COCCc1nnc2n1N=C(c1ccc(Cl)cc1)CS2",
    "Normalized Zscore Rep 2": 0.1771
  },
  {
    "compound": "Cn1nc(-c2ccc(Cl)cc2)c2cc(C(=O)O)sc21",
    "Normalized Zscore Rep 2": 0.1885
  },
  {
    "compound": "O=C1CC(c2ccc(O)c(O)c2)c2c(nc(SCc3cccc(Cl)c3)[nH]c2=O)N1 (stereo not drawn)",
    "Normalized Zscore Rep 2": 0.1893
  },
  {
    "compound": "Cc1ccc(OCc2nn3c(-c4ccoc4C)nnc3s2)cc1",
    "Normalized Zscore Rep 2": 0.3127
  },
  {
    "compound": "O=C(O)c1cc(NS(=O)(=O)c2ccc3c(c2)CCCC3)cnc1N1CCCC1",
    "Normalized Zscore Rep 2": 0.3044
  },
  {
    "compound": "Cc1nnc(NC(=O)CSc2ccc3nnc(-c4ccc(F)cc4)n3n2)s1",
    "Normalized Zscore Rep 2": 0.2665
  },
  {
    "compound": "CCN(Cc1ccccc1)c1ccc(NS(C)(=O)=O)cc1C(=O)O",
    "Normalized Zscore Rep 2": 0.155
  },
  {
    "compound": "O=C(O)c1ccc(N2CCN(c3ccccn3)CC2)c(NC(=O)c2ccc(Br)cc2)c1",
    "Normalized Zscore Rep 2": 0.1451
  },
  {
    "compound": "Fc1ccc(-c2nn3c(CSc4ccccc4)nnc3s2)cc1",
    "Normalized Zscore Rep 2": 0.2685
  },
  {
    "compound": "CN(C)S(=O)(=O)Nc1ccc(N2CCC(C(N)=O)(N3CCCCC3)CC2)c(C(=O)O)c1",
    "Normalized Zscore Rep 2": 0.2442
  },
  {
    "compound": "C=C1C(C(=O)NCc2ccco2)C1C(=O)NCc1ccco1 (stereo not drawn)",
    "Normalized Zscore Rep 2": 0.5892
  },
  {
    "compound": "O=C(CSc1ccc2ccccc2c1)N1CCN(c2ccc(O)cc2)CC1",
    "Normalized Zscore Rep 2": 0.165
  },
  {
    "compound": "Cc1cc(Nc2ccccc2)n(-c2ccccc2C(=O)O)n1",
    "Normalized Zscore Rep 2": 0.4517
  },
  {
    "compound": "CCN(Cc1ccccc1)c1ncc(NS(=O)(=O)c2cc(C)ccc2C)cc1C(=O)O",
    "Normalized Zscore Rep 2": 0.2028
  },
  {
    "compound": "CCN(Cc1ccccc1)c1ccc(NS(=O)(=O)c2ccc(OC)cc2)cc1C(=O)O",
    "Normalized Zscore Rep 2": 0.2729
  },
  {
    "compound": "O=C(CSc1nnc2ccccn12)N1CCc2ccccc2C1",
    "Normalized Zscore Rep 2": 0.3358
  },
  {
    "compound": "CN(C)c1ncc(NS(=O)(=O)c2ccc(F)c(F)c2)cc1C(=O)O",
    "Normalized Zscore Rep 2": 0.159
  },
  {
    "compound": "CCN(Cc1ccccc1)c1ncc(NS(=O)(=O)CC)cc1C(=O)O",
    "Normalized Zscore Rep 2": 0.2957
  },
  {
    "compound": "CN(C)S(=O)(=O)Nc1ccc(N2CCCC(CN3CCCC3)C2)c(C(=O)O)c1 (stereo not drawn)",
    "Normalized Zscore Rep 2": 0.2577
  },
  {
    "compound": "COc1ccc2cc3c(N)nn(C(=O)c4ccncc4)c3nc2c1",
    "Normalized Zscore Rep 2": 0.1978
  },
  {
    "compound": "Cc1nn2c(=O)cc(COc3ccc(C)c(C)c3)nc2s1",
    "Normalized Zscore Rep 2": 0.5292
  },
  {
    "compound": "CC(C)NC(=O)CN1CCN(c2ccc(C(=O)O)cc2NC(=O)c2ccccc2Cl)CC1",
    "Normalized Zscore Rep 2": 0.2295
  },
  {
    "compound": "CC1CCC(NC(=O)C2(C)Cn3c(cc4occc43)C(=O)N2CCN(C)C2CCCCC2)CC1 (stereo not drawn)",
    "Normalized Zscore Rep 2": 0.1821
  },
  {
    "compound": "CCCCN(CC)c1ncc(NS(C)(=O)=O)cc1C(=O)O",
    "Normalized Zscore Rep 2": 0.1895
  },
  {
    "compound": "Cc1cc(C)c(S(=O)(=O)Nc2cnc(N3CCCC3)c(C(=O)O)c2)cc1C",
    "Normalized Zscore Rep 2": 0.429
  },
  {
    "compound": "Cc1n[nH]c2c1C(c1ccc(O)c(O)c1)CC(=O)N2 (stereo not drawn)",
    "Normalized Zscore Rep 2": 0.2821
  },
  {
    "compound": "CCSc1nc2c(c(=O)[nH]1)C(c1ccc(O)c(O)c1)CC(=O)N2 (stereo not drawn)",
    "Normalized Zscore Rep 2": 0.3207
  }
]

###

- system: SaCas9 (Staphylococcus aureus, UniProt J7RUA5)
- Sequence (J7RUA5 whole entry): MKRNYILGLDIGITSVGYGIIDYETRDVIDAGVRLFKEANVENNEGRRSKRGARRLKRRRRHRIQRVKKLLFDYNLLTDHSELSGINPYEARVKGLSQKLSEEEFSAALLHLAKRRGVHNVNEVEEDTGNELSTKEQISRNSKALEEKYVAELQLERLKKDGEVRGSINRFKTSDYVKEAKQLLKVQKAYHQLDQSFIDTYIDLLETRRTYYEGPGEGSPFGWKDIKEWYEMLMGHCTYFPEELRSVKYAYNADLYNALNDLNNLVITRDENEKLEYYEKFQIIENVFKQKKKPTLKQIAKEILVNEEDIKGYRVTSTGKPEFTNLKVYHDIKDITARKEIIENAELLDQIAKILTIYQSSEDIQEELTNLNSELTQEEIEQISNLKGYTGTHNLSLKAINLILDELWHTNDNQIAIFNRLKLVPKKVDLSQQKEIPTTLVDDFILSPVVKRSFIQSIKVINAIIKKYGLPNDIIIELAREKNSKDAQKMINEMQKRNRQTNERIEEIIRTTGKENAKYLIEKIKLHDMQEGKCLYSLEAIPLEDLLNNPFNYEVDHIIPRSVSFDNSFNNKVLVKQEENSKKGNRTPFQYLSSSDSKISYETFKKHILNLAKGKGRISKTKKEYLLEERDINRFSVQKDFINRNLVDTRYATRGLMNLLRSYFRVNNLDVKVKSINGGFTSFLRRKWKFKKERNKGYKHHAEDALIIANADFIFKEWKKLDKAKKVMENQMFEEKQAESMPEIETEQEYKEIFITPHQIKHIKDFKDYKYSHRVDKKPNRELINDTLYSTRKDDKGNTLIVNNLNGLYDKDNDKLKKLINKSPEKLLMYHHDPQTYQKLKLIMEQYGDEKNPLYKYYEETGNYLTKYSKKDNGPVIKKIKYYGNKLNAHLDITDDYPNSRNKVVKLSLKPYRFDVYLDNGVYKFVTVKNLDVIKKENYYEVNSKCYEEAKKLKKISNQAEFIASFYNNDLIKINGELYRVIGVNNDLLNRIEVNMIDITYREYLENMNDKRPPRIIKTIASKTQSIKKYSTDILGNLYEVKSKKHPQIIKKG
- assay text: Strand displacement assay, SaCas9 primary screen
- Assay type: biochemical
- experimental context: SaCas9 primary screen, weaker potential hits, replicate 1
Listing of recorded Normalized Zscore Rep 1 by entry.

[
  {
    "compound": "c1ccc(Cc2nn3c(-c4cccnc4)nnc3s2)cc1 [Compound D727-0066]",
    "Normalized Zscore Rep 1": 0.1917
  },
  {
    "compound": "O=C(c1ccccc1)c1cnc2ccc(F)cc2c1S(=O)(=O)c1ccc(F)cc1 [Cpd C770-0245]",
    "Normalized Zscore Rep 1": 0.2065
  },
  {
    "compound": "COc1cccc(CNCc2cccn2-c2sc(C)c(C)c2C(=O)O)c1 [Cpd C795-1664]",
    "Normalized Zscore Rep 1": 0.3494
  },
  {
    "compound": "c1ccc(-c2nnc3sc(-c4ccncc4)nn23)nc1 [Cpd D727-0542]",
    "Normalized Zscore Rep 1": 0.1921
  },
  {
    "compound": "CN(C)S(=O)(=O)Nc1ccc(N2CCCC(CN3CCCC3)C2)c(C(=O)O)c1 (stereo not drawn) [Compound F294-0983]",
    "Normalized Zscore Rep 1": 0.2894
  },
  {
    "compound": "O=C(O)c1cc(NS(=O)(=O)c2cc(F)ccc2F)cnc1N1CCOCC1 [Cpd F293-0775]",
    "Normalized Zscore Rep 1": 0.1939
  },
  {
    "compound": "CCCCN(CC)c1ncc(NS(C)(=O)=O)cc1C(=O)O [Cpd F293-0529]",
    "Normalized Zscore Rep 1": 0.1815
  },
  {
    "compound": "CC1(C(=O)NC2CCCCC2)Cn2c(cc3ccccc32)C(=O)N1c1ccc2c(c1)OCCO2 (stereo not drawn) [Cpd E234-0056]",
    "Normalized Zscore Rep 1": 0.2592
  },
  {
    "compound": "CCN(Cc1ccccc1)c1ccc(NS(=O)(=O)c2ccc(OC)cc2)cc1C(=O)O [Compound F294-0003]",
    "Normalized Zscore Rep 1": 0.2547
  },
  {
    "compound": "COc1ccc(-c2nc(N)s[n+]2-c2ccccc2)cc1 [Cpd T0501-2049]",
    "Normalized Zscore Rep 1": 0.6053
  },
  {
    "compound": "O=C1CC(c2ccc(O)c(O)c2)c2c(nc(SCc3ccccc3)[nH]c2=O)N1 (stereo not drawn) [Cpd D271-0007]",
    "Normalized Zscore Rep 1": 0.1942
  },
  {
    "compound": "O=C1CC(NC(=O)c2ccc(Cl)cc2)C(=O)N1 (stereo not drawn) [Cpd T0513-4457]",
    "Normalized Zscore Rep 1": 0.4361
  },
  {
    "compound": "O=C(CSc1ccc2ccccc2c1)N1CCN(c2ccc(O)cc2)CC1 [Cpd T0508-7813]",
    "Normalized Zscore Rep 1": 0.1931
  },
  {
    "compound": "NC(=O)c1c(NC(=O)COCc2cc(-c3ccc4c(c3)OCO4)on2)sc2c1CCCC2 [Compound E613-0091]",
    "Normalized Zscore Rep 1": 0.1515
  },
  {
    "compound": "Cc1nnc(NC(=O)CSc2ccc3nnc(-c4ccc(F)cc4)n3n2)s1 [Cpd C742-0312]",
    "Normalized Zscore Rep 1": 0.1897
  }
]
